# Test system: SF-295 CNS
# Method notes: NCI tumour cell line growth inhibition, 48 h; in the data active means GI50 below about 0.43 µM; inactive means the rest
Select the correct class. Options are active, inactive and nothing else.

These solved cases illustrate the format of a correct answer.
Asked: Lab log entry: COCCNc1cc(NC(=O)N2CCCc3cc(CN4CCN(C)CC4=O)c(C=O)nc32)ncc1C#N — outcome as called in the assay?
Given back: inactive

Asked: Lab log entry: C=C1CCC2C3(C)COC(c4ccccc4Br)OC3CCC2(C)C1C/C=C1/C(=O)OCC1OC(C)=O (stereo unspecified) — outcome as called in the assay?
Given back: inactive

Asked: Lab log entry: CCNCCNc1cc(C2CCCCC2)c(C#N)c2nc3ccccc3n12 — outcome as called in the assay?
Given back: inactive

Asked: Lab log entry: O=C(N/N=C/c1cc([N+](=O)[O-])ccc1O)c1cccc2ccccc12 — outcome as called in the assay?
Given back: inactive

Asked: Lab log entry: COc1cc(C(=O)/C=C/c2cccnc2Nc2ccccc2)cc(OC)c1OC — outcome as called in the assay?
Given back: inactive

Asked: Lab log entry: COc1cc(C2CC(c3ccc(N(C)C)cc3)=NN2C(C)=O)cc(OC)c1OC (stereo unspecified) — outcome as called in the assay?
Given back: active

API: the following record is the query input.
Asked: Lab log entry: CCN1C(=O)N(CC)C2C1NN=c1s/c(=C\c3cc4ccccc4[nH]3)c(=O)n12 (stereo unspecified) — outcome as called in the assay?
Given back: active
